Provenance of the data: ChEMBL document CHEMBL1833944

- targetSystem: Bile acid receptor (Homo sapiens, UniProt Q96RI1)
- Sequence (Q96RI1 whole entry, the tested form may be a part): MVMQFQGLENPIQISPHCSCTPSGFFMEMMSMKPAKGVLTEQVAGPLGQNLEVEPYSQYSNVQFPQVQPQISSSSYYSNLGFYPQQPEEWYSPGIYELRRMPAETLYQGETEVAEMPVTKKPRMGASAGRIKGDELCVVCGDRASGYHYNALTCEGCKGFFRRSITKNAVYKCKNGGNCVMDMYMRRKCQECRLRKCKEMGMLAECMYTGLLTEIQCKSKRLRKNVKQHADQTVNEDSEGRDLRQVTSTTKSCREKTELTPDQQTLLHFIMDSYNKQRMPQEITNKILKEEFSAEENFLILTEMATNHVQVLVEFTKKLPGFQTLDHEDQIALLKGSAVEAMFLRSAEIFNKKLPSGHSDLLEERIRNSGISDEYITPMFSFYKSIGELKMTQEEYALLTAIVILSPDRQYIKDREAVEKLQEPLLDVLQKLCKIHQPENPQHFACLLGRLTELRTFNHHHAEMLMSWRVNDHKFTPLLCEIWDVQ
- protocol: Agonist activity at human FXR LBD transfected in african green monkey CV1 cells after overnight incubation by luciferase reporter gene assay
- Assay type: functional, cell-based, CV-1
recordedMetric: pEC50
Reminder that pEC50 means the negative base-10 logarithm of the concentration expressed in mol/L.

Lab note: measured pEC50 of CC(C)c1onc(-c2c(Cl)cccc2Cl)c1COc1ccc(-c2nc3cccc(C(=O)O)c3[nH]2)cc1 was 5.89

So for CC(C)c1onc(-c2c(Cl)cccc2Cl)c1COc1ccc(-c2ccc3c(c2)CC(C(=O)O)C3)cc1 (configuration not stated) , the logged pEC50 turned out to be 6.31

GET /value?item= CC(C)c1onc(-c2c(Cl)cccc2Cl)c1COc1ccc(-c2ccc3cc(C(=O)O)[nH]c3c2)cc1 &field=pEC50 returns 6.85

// recorded pEC50 for CC(C)c1onc(-c2c(Cl)cccc2Cl)c1COc1ccc(-c2ccc3sc(C(=O)O)cc3n2)cc1 : 5.77

response.value for CC(C)c1onc(-c2c(Cl)cccc2Cl)c1COc1ccc(-c2ccc3sc(C(=O)O)cc3c2)cc1 (field: pEC50) = 6.28

CC(C)c1onc(-c2c(Cl)cccc2Cl)c1COc1ccc(Sc2cccc3sc(C(=O)O)cc23)cc1 has a reported pEC50 of 6.00

GET /value?item= CC(C)c1onc(-c2c(Cl)cccc2Cl)c1COc1ccc(-c2ccc3[nH]c(C(=O)O)cc3c2)cc1 &field=pEC50 returns 6.96

Lab note: measured pEC50 of CC(C)c1onc(-c2c(Cl)cccc2Cl)c1COc1ccc(-c2ccc3oc(C(=O)O)cc3c2)cc1 was 6.89

Per the records, this molecule ( CC(C)c1onc(-c2c(Cl)cccc2Cl)c1COc1ccc(-c2ccc3c(C(=O)O)c[nH]c3c2)cc1 ) has pEC50 equal to 7.51

Recorded result, CC(C)c1onc(-c2c(Cl)cccc2Cl)c1COc1ccc(Cn2ccc3ccc(C(=O)O)cc32)cc1 , pEC50: 6.30

Per the records, this molecule ( CC(C)c1onc(-c2c(Cl)cccc2Cl)c1COc1ccc(-c2ccc3c(c2)CCCC3C(=O)O)cc1 (configuration not stated) ) has pEC50 equal to 6.12

Item: CC(C)c1onc(-c2c(Cl)cccc2Cl)c1COc1ccc(-c2ccc3c(C(=O)O)csc3c2)cc1 | pEC50: 7.62
